Each recorded value in this set is attributed to patent US12612410B2.

- system: FLT3 (Homo sapiens)
- Sequence (P36888 27-993): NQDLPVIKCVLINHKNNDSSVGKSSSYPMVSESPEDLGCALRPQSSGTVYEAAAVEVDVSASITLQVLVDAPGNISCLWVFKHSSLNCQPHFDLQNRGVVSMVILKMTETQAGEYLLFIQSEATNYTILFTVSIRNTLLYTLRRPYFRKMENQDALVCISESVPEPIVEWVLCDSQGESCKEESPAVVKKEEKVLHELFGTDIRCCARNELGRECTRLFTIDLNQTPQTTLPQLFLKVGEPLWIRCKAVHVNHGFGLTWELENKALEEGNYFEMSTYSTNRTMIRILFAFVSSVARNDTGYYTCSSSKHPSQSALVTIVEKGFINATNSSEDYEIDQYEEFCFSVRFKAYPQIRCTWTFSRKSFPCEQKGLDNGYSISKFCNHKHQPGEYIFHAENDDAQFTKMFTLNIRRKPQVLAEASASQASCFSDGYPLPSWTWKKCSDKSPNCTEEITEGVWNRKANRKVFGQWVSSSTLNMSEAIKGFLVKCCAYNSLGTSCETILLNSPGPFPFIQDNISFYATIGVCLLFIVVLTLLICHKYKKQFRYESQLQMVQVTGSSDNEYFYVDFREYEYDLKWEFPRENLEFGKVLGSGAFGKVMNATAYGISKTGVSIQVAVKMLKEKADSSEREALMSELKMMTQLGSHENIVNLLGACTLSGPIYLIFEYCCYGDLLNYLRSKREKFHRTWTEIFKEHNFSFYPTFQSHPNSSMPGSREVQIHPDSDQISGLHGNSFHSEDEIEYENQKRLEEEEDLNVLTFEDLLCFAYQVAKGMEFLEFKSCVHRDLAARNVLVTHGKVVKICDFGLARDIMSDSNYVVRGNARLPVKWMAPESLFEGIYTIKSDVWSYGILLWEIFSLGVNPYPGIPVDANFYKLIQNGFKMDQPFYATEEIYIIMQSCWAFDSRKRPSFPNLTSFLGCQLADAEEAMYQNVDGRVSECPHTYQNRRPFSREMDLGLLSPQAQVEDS
- test description: RBC HotSpot Kinase Assay, FLT3
- Assay type: biochemical
- Parameters: purchased Reaction Biology (RBC), HotSpot kinase assay
- condition info: isolated kinase, 33P-ATP
pIC50: −log10 of the molar value.
value kind: pIC50

I'd like to know its pIC50. The compound in question is FC(F)c1cn2c(-c3cccc(N[C@H]4CNCC4(F)F)n3)cnc2cn1
> 9.30

Now consider FC(F)(F)COc1cn2c(-c3cccc(N[C@@H]4CCNC4)n3)cnc2cn1 and answer again.
> 9.30

Now consider CC(O)(c1cn2c(-c3cc(F)cc(N[C@H]4CNCC[C@@H]4F)n3)cnc2cn1)C(F)(F)F (single isomer, unassigned) [Compound 86] and answer again.
9.05

Now consider O=C1CCCCN1c1cn2c(-c3cccc(N[C@H]4CNC[C@@H]4F)n3)cnc2cn1 and answer again.
9.00

Now consider O=C1COCCN1c1cn2c(-c3cccc(N[C@H]4CNCC[C@@H]4F)n3)cnc2cn1 and answer again.
> 9.30

Now consider c1cc(N[C@@H]2CCCNC2)nc(-c2cnc3cnc(-c4cnn(C5CC5)c4)cn23)c1 and answer again.
> 9.30

Now consider CC1(C)CCN(c2cn3c(-c4cccc(N[C@H]5CNC[C@@H]5F)n4)cnc3cn2)C1=O and answer again.
8.70

Now consider CC1(C)CC(=O)N(c2cn3c(-c4cccc(N[C@H]5CNC[C@@H]5F)n4)cnc3cn2)C1 and answer again.
> 9.30

Now consider CC(O)(c1cn2c(-c3cccc(N[C@H]4CNC[C@@H]4F)n3)cnc2cn1)C(F)(F)F (single isomer, unassigned) [Compound 78] and answer again.
> 9.30
